Entry source: the supplement of paper PMC9732359

assay.protocol: protein stability index of a GFP-peptide fusion (yeast GPS) (PSI 1-4); higher = more stable; sorted into four equal gates, so the index is relative within each strain
experimental.parameters: pdr5∆
For each of the sequences below, state its protein stability index.
Give bare numbers.

Respectfully, I request protein stability index for each entry included below.
1. AESEAITVTAKQQPTMQ [SWI3]
2. FVKFLSKKGSLENNIRE [RPL10]

[3.22, 3.32]

For each of the sequences below, note its protein stability index.
1. IAFASNYGIVELDPECQ [RRP43]
2. GEALPNKFHKSIREDIL [SIR2]
3. RAKSSSHLFNEYSYVDS [RPN4]
4. QAINLGQVVLTPLTFAL [RPL14A]
5. HTLDIINVLTDQNPIQV [RPS5]
6. YYNEISRDLDISSSTQC [POP6]

2.68
3.04
3.23
1.43
2.33
2.56

// each listed sequence needs a value for protein stability index
1. NENSNCLLSIPKSTKGK [YML103C/NUP188]
2. EDFPIDTWANGETIKSN [SEM1]
3. YDSRPLEEDSKKVNGTS [PRP8]
4. TSVDGKKRSKVRKETYS [HTB2]

[1.99, 3.61, 3.53, 3.19]

Value sought for every listed sequence: protein stability index.
1. EITDASLNLQYVNYEIS [YML103C/NUP188]
2. QKGITSYAVSPYAQKPL [QCR8]
3. VTDNKTPEMNVTNNVEE [TAF14]
4. LASNFDNFDYFNQRDGE [MED1]
5. NIMSASGGLFGNQQQQL [YGL172W/NUP49]

1: 2.96; 2: 3.05; 3: 3.27; 4: 3.17; 5: 3.12

Please report protein stability index for every entry that follows.
1. MVQQLSLFGSIGDDGYD [SRB5]
2. HRDAYSGGSVNLYHVTE [PRE2]
3. HGQKGVCGIIVKQEDMP [RET1]
4. EHEEKEKERETNKKGIK [RPN2]

[3.26, 3.32, 1.35, 3.36]

Required: protein stability index, one value per sequence below.
1. KDAEDETSSDGSKSDGS [RPN1]
2. KAKSNQTQREKAPLQPN [IRR1]
3. LSAVAQAESMKFKLLNG [RPS3]

3.41
3.24
3.21

Please report protein stability index for every entry that follows.
1. TSSRGRDHKSYSQSPPR [SMC4]
2. NMFELAQQLVGVYKRDN [SMC4]
3. TMTMDVFNDAHVLNKVT [RPN1]

2.81
1.61
2.25

Need protein stability index for each of these sequences.
1. APKWYPSEDVAAPKKTR [RPL6B]
2. DEKVTILVDSLTGNQLP [SWI1]

2.09
2.72

###

assay.protocol: protein stability index of a GFP-peptide fusion (yeast GPS) (PSI 1-4); higher = more stable; sorted into four equal gates, so the index is relative within each strain
experimental.parameters: doa10∆
Output schema: class label derived from protein stability index. Mapping: bottom end (below 2), midrange (2 to below 3), top end (3 or more)

Recorded results for 6 sequences are shown here.
ILEDFRVIKDFKKLNSK [YMR153W/NUP53] = top end
VKLMKNITDYETHPDNS [BRR2] = midrange
FNITDNGVRALFHSCTR [GRR1] = bottom end
QARMMQQQSADHDDSTD [NSL1] = midrange
SRPDILSKIKFPESIWK [YCG1] = midrange
HPPDFKRMLLSLSEFAR [SNF2] = bottom end

Each sequence maps to one class by protein stability index. Which class for FSSNERYFFWLQEKNSG [RPN13] ?
bottom end

Please report the category associated with TQDESEIKDAETSCDNY [SMC4] , nothing else.
midrange

Just checking, what class would you give VNKYGLRADKLYEKLKQ [ISW2] here?
bottom end

For this sequence, which bin applies? SKNAERKWAARAASAKI [RPS8A]
top end

Hi there! Could you help me figure out the category for KISNSEFFNPEIFHLLQ [SIN4] please?
midrange

###

assay.protocol: protein stability index of a GFP-peptide fusion (yeast GPS) (PSI 1-4); higher = more stable; sorted into four equal gates, so the index is relative within each strain
experimental.parameters: doa10∆
Please provide measured protein stability index for the entries that follow.

Please review the following examples before continuing.
APKWYPSEDVAAPKKTR [RPL6B] = 2.13
RAKSSSHLFNEYSYVDS [RPN4] = 2.62
NGEEIVGFWKDDGDDED [MTR3] = 2.52

Below are 8 sequences. Give each one its protein stability index.
1. WGYQMVWAPTQKCFKLT [POP1]
2. GEALPNKFHKSIREDIL [SIR2]
3. PNTTKTKLRAFVYNKVN [YGR119C/NUP57]
4. LSVMCGCGTVKRFNIGA [RPR2]
5. VNIHHLLNEYRPHQSRE [MED7]
6. REKLAEVYKAEKDAVSV [RPS24A]
7. KKSQCKKKTTLEDFENF [YIL149C/MLP2]
8. NSDLEFNTFWDEKGNEI [ARP9]

1: 2.59; 2: 3.16; 3: 2.47; 4: 3.16; 5: 2.81; 6: 3.27; 7: 2.87; 8: 3.41

# per-item lookup of protein stability index; items listed below
1. YIDYSSKRYIPSVNDFV [RRP40]
2. DDDDSRKSAPVDSWDRE [SKP1]
3. PPEEFSNTIDELSTDII [SRB7]
4. AAAGAAMIDAGALEEIT [FAS2]

1. 2.51
2. 3.15
3. 3.1
4. 2.72

Would you mind listing protein stability index for each of the following sequences?
1. TLQLGQEFQLKQINHQG [RPB4]
2. EEASQLIEYMENDAKKS [NUT1]

1. 3.22
2. 2.95

###

Field: protein stability index. Provide a value for each of the sequences that follow.
assay.protocol: protein stability index of a GFP-peptide fusion (yeast GPS) (PSI 1-4); higher = more stable; sorted into four equal gates, so the index is relative within each strain
experimental.parameters: pdr5∆
Give bare numbers.

VTKDLKLRREDEIIVYA [REC8] = 2.73
NISKSRAKPVTNSSILL [RRP6] = 2.23
DYSKPNLPPHYALFLKA [SSN2] = 2.03
GWYHSHPGFGCWLSSVD [RPN11] = 3.09
DKDAFIPKLKPAPINSL [SNU114] = 2.88
VDDSMELCGQIRSERFK [ITC1] = 3
HIILDTISECNLYDDVK [MED1] = 3.18
ETHSKKRKKEANEEPNT [ITC1] = 2.6

Hi! Can you tell me protein stability index for each of these sequences?
1. VFVNTGLQNVRKVRTKK [SWP82]
2. YDEVKKHWGGGILGNKA [RPL8A]
3. LRIVKPTVSLTINLDRF [RPC82]
4. ITHNTNITDNLFQELSK [GRR1]
5. ENGIEVELLDSNDRVNP [ITC1]
6. VNKYGLRADKLYEKLKQ [ISW2]
7. ALEYIGAKVKTMRRQKL [RET1]

1. 2.35
2. 3.4
3. 2.29
4. 3.55
5. 3.2
6. 1.5
7. 2.48

###

assay.protocol: protein stability index of a GFP-peptide fusion (yeast GPS) (PSI 1-4); higher = more stable; sorted into four equal gates, so the index is relative within each strain
experimental.parameters: ubr1∆
parameter: protein stability index
Give bare numbers.

Use the examples below as a reference point.
NVYVLPKNLLKKFIEIS [PRP8] = 1.79
SGTSVFEVEMILMQQQM [SRP54] = 3.22
YNTRKNAVTAAAANNNI [GAL11] = 2.46
GNIVKEFENKFQNSYKP [YMR129W/POM152] = 3.39

Please state, for each entry, its recorded protein stability index.
1. AMLINLILRDFLNNGEV [RPN3]
2. LLCALDRKDQDDRDHFG [RPB2]
3. PALIRPGRIDRKILFEN [RPT2]
4. GKRHIFDVNTLCLMTWK [CDC53]
5. IQRTLMELLTQMDGFDN [RPT4]
6. KDAEYLRNYLTPNVREE [PUP1]

[2.84, 3.47, 2.58, 2.08, 3.23, 3.16]

Hey, quick one: what's protein stability index for each of these?
1. MTQRAIQSAESIKSQKE [SWI3]
2. FSLLVKAEIPPEYAKVG [SIN4]
3. LRGEYNDLQSETKTKKE [SMC4]
4. HSSSVFKGTDFVHSVKK [SRB4]
5. NLDNLQKVSQLESADKQ [POP4]

1: 1.7; 2: 2.72; 3: 2.82; 4: 2.99; 5: 2.86

###

assay.protocol: protein stability index of a GFP-peptide fusion (yeast GPS) (PSI 1-4); higher = more stable; sorted into four equal gates, so the index is relative within each strain
experimental.parameters: san1∆
Assign a class from recorded protein stability index; defined classes: lower range (below 2), middle range (2 to below 3), upper range (3 or more)

SEILSFDPVYTTVITVF [YML103C/NUP188] = lower range

// return the class label for LRYVIMKNPDVEFCGYS [RPC19]
middle range

In plain terms, what class is AECISLICSIGLHSSEY [ECM29] ?
middle range

For this sequence, which bin applies? IAAERAARKAANKEKRA [RPL7B]
upper range

// return the class label for KKSKKKWSKKSMKDRAQ [RPS25A]
upper range

Please report the category associated with TFEFINIAFDAHMSIGC [YML031W/NDC1] , nothing else.
lower range
